- Procedure details: Example 7: PK analysis, serum concentration after one vs two 70 mg nasal doses
- Assay type: in vivo, human
- Test conditions: human, serum, other: nasal, two 70 mg nasal doses, second approximately 10 minutes after first; Time 13; read-out: serum concentration, Max
Assay endpoint: concentration at 13 min (ng/mL)

{"Compound": "COC(=O)c1cccc(CCN(C)CCCC(C#N)(c2ccc(OC)c(OC)c2)C(C)C)c1 (stereo not shown)", "Assay endpoint": "concentration at 13 min", "Data value": 320}

* * *

- Procedure details: Example 7: PK analysis, serum concentration after one vs two 70 mg nasal doses
- Assay type: in vivo, human
- Test conditions: one 70 mg nasal dose; Time 730

{"Molecule": "COC(=O)c1cccc(CCN(C)CCCC(C#N)(c2ccc(OC)c(OC)c2)C(C)C)c1 (stereo not shown)", "serum concentration, Max, ng/mL": 3.17}
